Values from ChEMBL document CHEMBL3994598

# measurement_notes: Partition coefficient, logP of the compound in octan-1-ol and phosphate buffer at pH 7.4 at 25 degC after 2 hrs by UV-vis spectrometer
# Format: physicochemical
# condition_context: octan-1-ol/phosphate buffer
experimental_endpoint: logD at 2 h

COc1cc([C@@H]2Oc3c(O)ccc([C@H]4Oc5cc(O)cc(O)c5C(=O)[C@@H]4O)c3[C@H]2CO)ccc1O; -0.47
COc1cc([C@@H]2Oc3c(O)cc(-c4oc5cc(O)cc(O)c5c(=O)c4O)cc3[C@H]2CO)ccc1O; -1.01

(I) COc1cc(C2Oc3c(O)cc([C@H]4Oc5cc(O)cc(O)c5C(=O)[C@@H]4O)cc3C2CO)ccc1O (some centres undefined)
(II) COc1cc(-c2oc3c(O)cc([C@H]4Oc5cc(O)cc(O)c5C(=O)[C@@H]4O)cc3c2C)ccc1O
Task: Between I and II , which one shows the larger logD at 2 h value? Lab note: record the label of whichever item you select.
Output: I
(I: -0.39, II: -0.74)
